Molecular target: T1, recombinant human KLK5 C-6His (Novoprotein, Catalog No. C415) (human, UniProt Q9Y337 23-293)
T1 construct: Bought protein; also called KLK5 protein (Novoprotein); not shown: C-terminal 6xHis tag ('C-6His')
Assay: ELISA on captured KLK5 C-6His; binder incubated in human serum, day 0

{"columns": ["binder", "EC50"],
 "data": [
  ["Spink9-236.Fc (SEQ ID NO: 60) (Fc fusion, Mutant SPINK9 domain fused directly to a C-terminal IgG Fc) IECAKQTKQMVDCSHYKKLPPEQQLMCTREYDPICGSDGKTYKNDCFFCSKVKKTDGTLKFVHFGKCEPKSCDKTHTCPPCPAPEAAGGPSVFLFPPKPKDTLMISRTPEVTCVVVDVSHEDPEVKFNWYVDGVEVHNAKTKPREEQYNSTYRVVSVLTVLHQDWLNGKEYKCKVSNKALPAPIEKTISKAKGQPREPQVYTLPPSREEMTKNQVSLTCLVKGFYPSDIAVEWESNGQPENNYKTTPPVLDSDGSFFLYSKLTVDKSRWQQGNVFSCSVLHEALHSHYTQKSLSLSPGK", "0.05 nM"],
  ["Spink9-186.Fc (SEQ ID NO: 58) (Fc fusion, Mutant SPINK9 domain fused directly to a C-terminal IgG Fc) IECAKQTKQMVDCSHYKKLPPAQLIYCTKEYDPICGSDGKTYKNDCFFCSKVKKTDGTLKFVHFGKCEPKSCDKTHTCPPCPAPEAAGGPSVFLFPPKPKDTLMISRTPEVTCVVVDVSHEDPEVKFNWYVDGVEVHNAKTKPREEQYNSTYRVVSVLTVLHQDWLNGKEYKCKVSNKALPAPIEKTISKAKGQPREPQVYTLPPSREEMTKNQVSLTCLVKGFYPSDIAVEWESNGQPENNYKTTPPVLDSDGSFFLYSKLTVDKSRWQQGNVFSCSVLHEALHSHYTQKSLSLSPGK", "0.09 nM"],
  ["Spink9-112.K62G.Fc (SEQ ID NO: 56) (Fc fusion, Mutant SPINK9 domain fused directly to a C-terminal IgG Fc) IECAKQTKQMVDCSHYKKLPPEQELYCTREYDPICGSDGKTYGNDCFFCSKVKKTDGTLKFVHFGKCEPKSCDKTHTCPPCPAPEAAGGPSVFLFPPKPKDTLMISRTPEVTCVVVDVSHEDPEVKFNWYVDGVEVHNAKTKPREEQYNSTYRVVSVLTVLHQDWLNGKEYKCKVSNKALPAPIEKTISKAKGQPREPQVYTLPPSREEMTKNQVSLTCLVKGFYPSDIAVEWESNGQPENNYKTTPPVLDSDGSFFLYSKLTVDKSRWQQGNVFSCSVLHEALHSHYTQKSLSLSPGK", "0.1 nM"]
]}
